Data provenance: paper PMC6212594

MEASUREMENT_TARGET: T1, Taf14 YEATS domain (yeast, UniProt P35189 1-137)
T1 chain: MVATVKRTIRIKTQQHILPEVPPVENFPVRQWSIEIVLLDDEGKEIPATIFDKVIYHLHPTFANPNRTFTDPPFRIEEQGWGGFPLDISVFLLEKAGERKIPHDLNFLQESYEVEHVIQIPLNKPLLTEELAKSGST
ASSAY_OVERVIEW: NMR
pKd: −log10 of the molar value. *1 amine or outer side, *2 acyl side, *3 side chain or, on linkers, in order; H or OH if unused. Where no end group is shown, it is not given here. Suc = O=C(CCC(=O)[*:2])[*:1]
OBSERVATION_TYPE: pKd

Problem: Quick one: pKd of QTARK(Suc)STGG [histone H3K9su peptide] ?
Solution: < 3.15
